inhibition at 3 µM overview
Tested on: Hepatocyte
Assay: Inhibition of D-galactosamine/TNFalpha-induced cell death in ddY mouse hepatocytes at 3 uM after 20 hrs by MTT assay
Format: functional
assay.readout: inhibition at 3 µM (%)

> print(dat)
                                   molecule   tested.on       assay.readout  endpoint.result
1            O=Cc1ccc2c(c1)OCO2 [PIPERONAL]  Hepatocyte  inhibition at 3 µM               20
2  O=C(/C=C/CCCCCC/C=C/c1ccc2c(c1)OCO2)N1CCCCC1 [PIPERCHABAMIDE B]  Hepatocyte  inhibition at 3 µM               63
3  CC(C)CNC(=O)/C=C/C=C/CCCC/C=C/c1ccc2c(c1)OCO2 [RETROFRACTAMIDE B]  Hepatocyte  inhibition at 3 µM               54
4              CCCCCCC/C=C/C=C/C(=O)NCC(C)C  Hepatocyte  inhibition at 3 µM               21
5  O=C(/C=C/CCc1ccc2c(c1)OCO2)N1CCCCC1 [PIPERANINE]  Hepatocyte  inhibition at 3 µM               31
